Below, each entry is listed with its recorded IC50.
# Test system: NCI-H1650
# assay text: Growth inhibition of human NCI-H1650 cells incubated for 3 days by MTT assay
# applied conditions: NCI-H1650, 72 h
The reply should contain only the number, in nM.

Check out these entries, answers already filled in.
structure string: O=C1Nc2ccc(F)cc2/C1=C\C(=O)c1ccc(O)cc1F
result unit: nM
IC50: 3460

structure string: O=C1Nc2ccc(F)cc2/C1=C\C(=O)c1sccc1Cl
result unit: nM
IC50: 3560

structure string: O=C1Nc2ccc(F)cc2/C1=C\C(=O)c1cccs1
result unit: nM
IC50: 3220

Query: // IC50 lookup, key: "O=C1Nc2ccc(F)cc2/C1=C\C(=O)c1ccc2c(c1)OCO2"
Response: 1220

Query: // IC50 lookup, key: "O=C1Nc2ccc(F)cc2/C1=C\C(=O)c1cnc2ccc(Cl)nn12"
Response: 2730

Query: // IC50 lookup, key: "COc1ccc(C(=O)Nc2ccc3c(c2)/C(=C/Nc2cccc(N4CCN(C)CC4)c2)C(=O)N3)cc1"
Response: 1870

Query: // IC50 lookup, key: "CN1CCN(c2cccc(N/C=C3\C(=O)Nc4ccc(NC(=O)c5c(F)cccc5F)cc43)c2)CC1"
Response: 1630

Query: // IC50 lookup, key: "CN1CCN(c2cccc(N/C=C3\C(=O)Nc4ccc(NC(=O)c5ccc[nH]5)cc43)c2)CC1"
Response: 7560

Query: // IC50 lookup, key: "O=C1Nc2ccc(F)cc2/C1=C\C(=O)c1c[nH]c2ccccc12"
Response: 6580

Query: // IC50 lookup, key: "CN1CCN(c2cccc(N/C=C3\C(=O)Nc4ccc(NC(=O)c5c(Cl)cccc5Cl)cc43)c2)CC1"
Response: 2170

Query: // IC50 lookup, key: "CC(C)CC(=O)Nc1ccc2c(c1)/C(=C/Nc1cccc(N3CCN(C)CC3)c1)C(=O)N2"
Response: 5870

Query: // IC50 lookup, key: "O=C1Nc2ccccc2/C1=C\C(=O)c1c[nH]c2ccccc12"
Response: 1270

Query: // IC50 lookup, key: "O=C1Nc2ccc([N+](=O)[O-])cc2/C1=C\C(=O)c1ccc(C2CCCCC2)cc1"
Response: 3860

Query: // IC50 lookup, key: "O=C1Nc2ccc(F)cc2/C1=C\C(=O)c1ccc(C2CCCCC2)cc1"
Response: 2730

Query: // IC50 lookup, key: "CN1CCN(c2cccc(N/C=C3\C(=O)Nc4ccc(NC(=O)c5cccc(F)c5)cc43)c2)CC1"
Response: 4280

Query: // IC50 lookup, key: "CC(=O)O[C@H]1C(=O)[C@@]2(C)[C@H]([C@H](OC(=O)c3ccccc3)[C@]3(O)C[C@H](OC(=O)[C@H](O)[C@@H](NC(=O)c4ccccc4)c4ccccc4)C(C)=C1C3(C)C)[C@]1(OC(C)=O)CO[C@@H]1C[C@@H]2O"
Response: 70

Query: // IC50 lookup, key: "O=C1Nc2ccc(F)cc2/C1=C\C(=O)c1ccc[nH]1"
Response: 2840

* * *

# system under test: CDK9/cyclin T1 (Homo sapiens) (UniProt O60563+P50750)
# assay text: Inhibition of CDK9/Cyclin T1 (unknown origin) at 10 uM
# Type: protein-complex assay
Active and inactive are the calls of the source. The calls are words filed in the database; no cut-off is given here.
result type: inhibition

Check out these entries, answers already filled in.
structure string: O=C1Nc2ccc(F)cc2/C1=C\C(=O)c1sccc1Cl
result type: inhibition
value observed: inactive

structure string: O=C1Nc2ccc(F)cc2/C1=C\C(=O)c1ccc(C2CCCCC2)cc1
result type: inhibition
value observed: inactive

structure string: CN1CCN(c2cccc(N/C=C3\C(=O)Nc4ccc(NC(=O)c5c(F)cccc5F)cc43)c2)CC1
result type: inhibition
value observed: inactive

structure string: O=C1Nc2ccc(F)cc2/C1=C\C(=O)c1ccco1
result type: inhibition
value observed: inactive

structure string: O=C1Nc2ccc(F)cc2/C1=C\C(=O)c1cccs1
result type: inhibition
value observed: inactive

Query: // inhibition lookup, key: "CN1CCC(C(=O)Nc2ccc3c(c2)/C(=C/Nc2cccc(N4CCN(C)CC4)c2)C(=O)N3)CC1"
Response: inactive

These measurements were taken from ChEMBL document CHEMBL4052679.
